Biological target: farnesyl protein transferase (FPT), partially purified from rat brain (Rattus norvegicus, UniProt Q02293+Q04631)
Construct: were partially purified from rat brain by ammonium sulfate fractionation followed by Q-Sepharose
Sequence (Q02293 whole entry, one chain of several): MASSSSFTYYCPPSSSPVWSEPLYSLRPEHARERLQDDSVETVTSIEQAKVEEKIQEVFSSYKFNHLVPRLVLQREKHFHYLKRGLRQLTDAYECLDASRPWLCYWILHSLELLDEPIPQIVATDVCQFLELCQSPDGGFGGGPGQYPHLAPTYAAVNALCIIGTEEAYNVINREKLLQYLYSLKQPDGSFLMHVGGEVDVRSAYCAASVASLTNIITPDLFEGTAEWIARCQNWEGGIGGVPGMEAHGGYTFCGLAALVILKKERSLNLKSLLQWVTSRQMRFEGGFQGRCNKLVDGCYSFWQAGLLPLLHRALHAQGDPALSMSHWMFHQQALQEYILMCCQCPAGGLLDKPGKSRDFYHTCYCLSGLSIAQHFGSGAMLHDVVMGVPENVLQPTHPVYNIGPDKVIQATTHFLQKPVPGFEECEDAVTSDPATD
Assay: Inhibition of farnesyl protein transferase (transfer of [3H]farnesyl to Ras-CVLS)
Assay type: biochemical
Conditions: Ras-CVLS farnesylation, partially purified rat brain FPT; read-out: FPT IC50
Exercise: for every item that follows, state its recorded pIC50.
pIC50 here is simply -log10 of the concentration when that concentration is written in mol/L.

What measured pIC50 goes with O=C(Cc1ccc[n+]([O-])c1)N1CCN(C2c3ccc(Cl)cc3CCc3ccc[n+]([O-])c32)CC1 (stereo not shown) ?
5.42

Quick one: O=C(Cc1ccccn1)N1CCC(=C2c3ccc(Cl)cc3CCc3cccnc32)CC1
5.70

Quick one: O=C(Cc1ccncc1)N1CCC(=C2c3ccc(Cl)cc3CCc3cc(Cl)cnc32)CC1
7.40

Quick one: O=C(Cc1ccncc1)N1CCC(=C2c3ccncc3CCc3cc(Cl)ccc32)CC1
5.64
